List of IC50 values.
biological target: human cathepsin L (CatL) (Homo sapiens); construct: purchased BPS Bioscience; assay: Cathepsin L enzymatic assay; assay type: biochemical; conditions: Table 2; three independent experiments; read-out: IC50 CatL
Sequence (P07711 114-333): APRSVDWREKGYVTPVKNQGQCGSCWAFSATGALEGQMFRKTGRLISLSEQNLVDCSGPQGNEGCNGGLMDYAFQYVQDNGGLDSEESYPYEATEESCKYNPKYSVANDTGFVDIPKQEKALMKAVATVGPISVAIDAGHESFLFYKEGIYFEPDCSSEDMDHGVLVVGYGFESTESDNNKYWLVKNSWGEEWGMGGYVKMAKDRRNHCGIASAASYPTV
Write the value in nM as a bare number.

Compound: CCC[S-].[O]=[Re+3].[S-]CCSCC[S-] [Compound 4]
Unit Of Measurement: nM
IC50: 153

Kindly review the next compound as well.
Can you share its IC50? I mean this compound: [O]=[Re+3].[S-]CCSCC[S-].[S-]c1ccccc1 [Compound 5]
186

* * *

biological target: human cathepsin B (CatB) (Homo sapiens); construct: purchased BPS Bioscience; assay: Cathepsin B enzymatic assay; assay type: biochemical; details: read-out: apparent IC50, CatB
Parameter Measured: pIC50
pIC50 (log units): -log10 of the concentration in mol/L.

Compound: [Cl-].[O]=[Re+3].[S-]CCN(CC[S-])c1ccccc1
Parameter Measured: pIC50
Number: 7.36

So what's the measured pIC50 for this one? CC(C)C[C@H](NC(=O)[C@H]1O[C@@H]1C(=O)O)C(=O)NCCCCN=C(N)N [E-64, reference compound]
8.40

* * *

biological target: human cathepsin B (CatB) (Homo sapiens); construct: purchased BPS Bioscience; experiment: Cathepsin B enzymatic assay; assay type: biochemical; details: supplementary csv; read-out: CatB
Parameter Measured: pIC50
In plain terms, pIC50 is the concentration in mol/L turned into minus its base-10 logarithm.

Requested read-out: pIC50. Entry: [Cl-].[O]=[Re+3].[S-]CCN(CC[S-])c1ccccc1
4.36

* * *

molecular target: SARS-CoV-2 3-chymotrypsin-like protease (3CL^pro) (Severe acute respiratory syndrome coronavirus 2); type: biochemical; settings: read-out: apparent IC50, 3CL^pro
Parameter Measured: pIC50
Worth noting: pIC50 values are minus log10 of concentrations stated in mol/L.

Given the compound [Cl-].[O]=[Re+3].[S-]CCN(CC[S-])c1ccccc1 [Compound 9] , what is its reported pIC50?
7.17
